# System: RARg homodimer (NR concentration 270 nM)
# protocolText: PBM binding z-score (relative to random genomic background probes); higher = stronger binding; sequences stand for … in GC…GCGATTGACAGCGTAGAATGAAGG
quantityKind: PBM binding z-score

Prompt: PBM binding z-score lookup needed for `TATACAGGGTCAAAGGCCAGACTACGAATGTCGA` , thanks.
Response: 5.23

Prompt: And then `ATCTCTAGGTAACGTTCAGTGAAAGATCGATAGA` , what is it?
Response: 0.638

Prompt: And then `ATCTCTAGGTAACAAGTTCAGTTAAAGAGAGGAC` , what is it?
Response: 1.45

Prompt: And then `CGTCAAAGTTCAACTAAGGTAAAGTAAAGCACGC` , what is it?
Response: 6.89

Prompt: And then `ATCGAAAGGTCGAGGTGAGTATTGAGAAAGGGAA` , what is it?
Response: 3.88

Prompt: And then `GCATATAGGTAATACAAAGTGAAAGTCCGATTGT` , what is it?
Response: 0.264

Prompt: And then `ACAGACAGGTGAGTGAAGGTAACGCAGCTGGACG` , what is it?
Response: 0.522

Prompt: And then `CGAACTAGGTCCAGGACAGTGAATCTCCGCACGC` , what is it?
Response: -0.183

Prompt: And then `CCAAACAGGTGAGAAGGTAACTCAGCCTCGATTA` , what is it?
Response: 0.256

Prompt: And then `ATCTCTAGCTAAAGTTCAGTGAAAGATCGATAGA` , what is it?
Response: 2.45

Prompt: And then `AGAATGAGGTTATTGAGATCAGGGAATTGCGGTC` , what is it?
Response: 0.831

Prompt: And then `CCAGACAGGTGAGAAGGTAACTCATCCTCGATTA` , what is it?
Response: 0.745

Prompt: And then `GCTGCTAGGTCAGGTCGGTCAGCTAACGGGTACG` , what is it?
Response: 4.28

Prompt: And then `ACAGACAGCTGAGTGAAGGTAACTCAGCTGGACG` , what is it?
Response: -0.426

Prompt: And then `CCTTACGGGTCACGAGGTTATAGCGCGACGAGCG` , what is it?
Response: 5.29

Prompt: And then `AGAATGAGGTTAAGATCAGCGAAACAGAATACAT` , what is it?
Response: 1.45

Prompt: And then `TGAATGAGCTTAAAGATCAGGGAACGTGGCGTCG` , what is it?
Response: -0.307

Prompt: And then `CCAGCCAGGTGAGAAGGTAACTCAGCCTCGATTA` , what is it?
Response: 0.00676

Prompt: And then `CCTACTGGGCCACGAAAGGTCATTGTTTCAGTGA` , what is it?
Response: 4.31

Prompt: And then `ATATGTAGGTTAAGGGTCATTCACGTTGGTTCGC` , what is it?
Response: 3.42

Prompt: And then `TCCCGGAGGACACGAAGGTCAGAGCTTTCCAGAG` , what is it?
Response: 3.74

Prompt: And then `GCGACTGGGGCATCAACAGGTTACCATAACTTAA` , what is it?
Response: 0.509

Prompt: And then `CCGACCGGGGCATAAGGTTACCATAAGCCAGCCC` , what is it?
Response: 1.62

Prompt: And then `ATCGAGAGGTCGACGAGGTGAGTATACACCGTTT` , what is it?
Response: 2.85

Prompt: And then `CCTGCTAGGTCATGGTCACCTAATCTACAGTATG` , what is it?
Response: 4.93

Prompt: And then `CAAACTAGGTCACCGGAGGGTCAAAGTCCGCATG` , what is it?
Response: 6.79

Prompt: And then `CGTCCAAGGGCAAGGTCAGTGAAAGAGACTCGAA` , what is it?
Response: 4.43

Prompt: And then `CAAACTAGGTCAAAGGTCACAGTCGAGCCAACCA` , what is it?
Response: 7.36

Prompt: And then `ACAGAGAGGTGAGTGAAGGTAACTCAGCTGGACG` , what is it?
Response: 1.24

Prompt: And then `TGTCAAAGTCCAAAGGTAACGTAAGTATCCACAC` , what is it?
Response: 1.23

Prompt: And then `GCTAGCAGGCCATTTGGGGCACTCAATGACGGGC` , what is it?
Response: 0.3

Prompt: And then `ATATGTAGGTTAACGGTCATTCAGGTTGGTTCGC` , what is it?
Response: 2

Prompt: And then `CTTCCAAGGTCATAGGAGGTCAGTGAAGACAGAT` , what is it?
Response: 7.48

Prompt: And then `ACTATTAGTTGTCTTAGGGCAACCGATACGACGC` , what is it?
Response: 0.589

Prompt: And then `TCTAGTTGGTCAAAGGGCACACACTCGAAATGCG` , what is it?
Response: 1.97

Prompt: And then `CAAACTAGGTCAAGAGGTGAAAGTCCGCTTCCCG` , what is it?
Response: 5.36

Prompt: And then `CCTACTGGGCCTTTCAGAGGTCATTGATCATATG` , what is it?
Response: 2.71

Prompt: And then `TAGCCTAGGTCATGCGTGCCAGTATAGTGTCGGC` , what is it?
Response: 3.75

Prompt: And then `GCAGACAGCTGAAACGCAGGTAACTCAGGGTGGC` , what is it?
Response: -0.685

Prompt: And then `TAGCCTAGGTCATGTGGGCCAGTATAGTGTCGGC` , what is it?
Response: 4.65

Prompt: And then `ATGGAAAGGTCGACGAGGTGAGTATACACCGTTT` , what is it?
Response: 4.05

Prompt: And then `ATAACGAGGGCAATGAGTTGATAGCACGGGTGGC` , what is it?
Response: 1.73

Prompt: And then `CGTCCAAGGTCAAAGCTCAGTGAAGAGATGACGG` , what is it?
Response: 6.4

Prompt: And then `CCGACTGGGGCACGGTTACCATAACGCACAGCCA` , what is it?
Response: 1.13

Prompt: And then `CTCGAAAGGTCGGTTGAGTTGAGTATACGGATAA` , what is it?
Response: 2.35

Prompt: And then `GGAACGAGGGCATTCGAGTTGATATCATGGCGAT` , what is it?
Response: 1.52

Prompt: And then `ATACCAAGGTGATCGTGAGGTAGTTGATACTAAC` , what is it?
Response: 0.424

Prompt: And then `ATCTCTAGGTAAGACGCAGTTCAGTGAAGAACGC` , what is it?
Response: 0.097
